Catalogue of GI50 readings, one per entry.
System: T-Rex 293 cell line SC3 cells lacking increased expression of androgen receptor protein
Experiment: Cellular growth inhibition assay, T-Rex 293 SC3 cells without doxycycline (CellTiter-Glo, 72 hours)
Format: cell-based
Assay context: 72 h, T-Rex 293 cell line SC3 cells not exposed to doxycycline (lacking increased androgen receptor expression)
Outcome measure: GI50

compound="Cc1sc2c(c1C)C(c1ccc(OC[C@H]3C[C@@]4(CCCN(c5ccc(C(=O)N[C@H]6CC[C@H](Oc7ccc(C#N)c(Cl)c7)CC6)nn5)C4)C3)cc1)=N[C@@H](Cc1ncco1)c1nnc(C)n1-2 [I-105]" result="< 500 nM"
compound="Cc1sc2c(c1C)C(c1ccc(OC3CC(CC4CCN(c5ccc(C(=O)N[C@H]6CC[C@H](Oc7ccc(C#N)c(Cl)c7)CC6)nn5)CC4)C3)cc1)=NC1(CC1)c1nnc(C)n1-2 (stereo partly shown) [I-528]" result="> 3000 nM"
compound="Cc1sc2c(c1C)C(c1ccc(C#C[C@H]3C[C@@]4(CCCN(c5ccc(C(=O)N[C@H]6CC[C@H](Oc7ccc(C#N)c(Cl)c7)CC6)nn5)C4)C3)cc1)=N[C@@H](C)c1nnc(C)n1-2 [I-336]" result="< 500 nM"
compound="Cc1sc2c(c1C)C(c1ccc(CN3CCC4(CC3)CCN(c3ccc(C(=O)N[C@H]5CC[C@H](Oc6ccc(C#N)c(Cl)c6)CC5)nn3)CC4)cc1)=N[C@@H](Cc1ncco1)c1nnc(C)n1-2 [I-366]" result="< 500 nM"
compound="CC[C@@H]1N=C(c2ccc(N3CCC4(CC3)CCN(c3ccc(C(=O)N[C@H]5CC[C@H](Oc6ccc(C#N)c(Cl)c6)CC5)nn3)C4)cc2)c2c(sc(C)c2C)-n2c(C)nnc21 [I-530]" result="< 500 nM"
compound="Cc1sc2c(c1C)C(c1ccc(CCC[C@@H]3CCCN(c4ccc(C(=O)N[C@H]5CC[C@H](Oc6ccc(C#N)c(Cl)c6)CC5)nn4)CC3)cc1)=N[C@@H](Cc1ncco1)c1nnc(C)n1-2 [I-411]" result="< 500 nM"
compound="CCNC(=O)C[C@@H]1N=C(c2ccc(N3CCN(CC4CCN(c5ccc(C(=O)N[C@H]6CC[C@H](Oc7ccc(C#N)c(Cl)c7)CC6)nn5)CC4)CC3)cc2)c2c(sc(C)c2C)-n2c(C)nnc21 [I-28]" result="500 to 1500 nM"

----------
Catalogue of GI50 readings, one per entry.
System: T-Rex 293 cell line SC3 cells lacking increased expression of androgen receptor protein
Experiment: Cellular growth inhibition assay, T-Rex 293 SC3 cells without doxycycline (CellTiter-Glo, 72 hours)
Type: cell-based
Assay context: 72 h, T-Rex 293 cell line SC3 cells not exposed to doxycycline (lacking increased androgen receptor expression)
Outcome measure: GI50

molecule="Cc1sc2c(c1C)C(c1ccc(N3CC(C4CCN(c5ccc(C(=O)N[C@H]6CC[C@H](Oc7ccc(C#N)c(Cl)c7)CC6)nn5)CC4)C3)cc1)=N[C@@H](C)c1nnc(C)n1-2 [I-434]" measured_on="T-Rex 293 cell line SC3 cells lacking increased expression of androgen receptor protein" outcome_measure=GI50 result="< 500 nM"
molecule="Cc1sc2c(c1C)C(c1cccc(N3CCC4(CC3)CCN(c3ccc(C(=O)N[C@H]5CC[C@H](Oc6ccc(C#N)c(Cl)c6)CC5)nn3)C4)c1)=N[C@@H](C)c1nnc(C)n1-2 [I-685]" measured_on="T-Rex 293 cell line SC3 cells lacking increased expression of androgen receptor protein" outcome_measure=GI50 result="500 to 1500 nM"
molecule="Cc1sc2c(c1C)C(c1ccc(N3C[C@@H]4[C@H](C3)[C@H]4Nc3ncc(C(=O)N[C@H]4CC[C@H](Oc5ccc(C#N)c(Cl)c5)CC4)cn3)cc1)=NC(Cc1ncco1)c1nnc(C)n1-2 (some centres unmarked) [I-805]" measured_on="T-Rex 293 cell line SC3 cells lacking increased expression of androgen receptor protein" outcome_measure=GI50 result="< 500 nM"
molecule="Cc1sc2c(c1C)C(c1ccc(N[C@H]3CC[C@H](CNc4ncc(C(=O)N[C@H]5CC[C@H](Oc6ccc(C#N)c(Cl)c6)CC5)cn4)CC3)cc1)=NC(Cc1ncco1)c1nnc(C)n1-2 (some centres unmarked) [I-796]" measured_on="T-Rex 293 cell line SC3 cells lacking increased expression of androgen receptor protein" outcome_measure=GI50 result="< 500 nM"
molecule="Cc1sc2c(c1C)C(c1ccc(O[C@H]3CCCN(c4ccc(C(=O)N[C@H]5CC[C@H](Oc6ccc(C#N)c(Cl)c6)CC5)nn4)C3)cc1)=N[C@@H](Cc1ncco1)c1nnc(C)n1-2 [I-217]" measured_on="T-Rex 293 cell line SC3 cells lacking increased expression of androgen receptor protein" outcome_measure=GI50 result="< 500 nM"
